Kindly state composite z-score for each of the entries shown.
tested on: PRMT1 (protein arginine N-methyltransferase 1); experiment: PRMT1 binders on small-molecule microarrays, primary screen, biochemical, small-molecule microarray, 635 nm fluorescence (AID 1088); conditions: small-molecule microarray binding, higher = more signal;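 further: binding of Prmt1 protein to compounds spotted on small-molecule microarray slides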
One number for each entry.

Consider the following illustrative entries.
MOLECULE	VALUE_KIND	RECORDED_MEASUREMENT
O=C(NCCO)C1=C[C@H](Oc2ccccc2I)[C@@H](O)[C@H](N(Cc2ccco2)C(=O)Cc2ccccc2)C1	composite z-score	-0.0355
O=C1C2C=CC(C(O)CCc3ccccc3)N(Nc3ccccc3F)C2C(=O)N1c1ccccc1 (centres undefined)	composite z-score	1.49

The following molecules each have a reported value; give each one's composite z-score.
1. NC(=O)NCC#Cc1ccc2c(c1)[C@]1(C(=O)N2)[C@H](C(=O)Nc2nc3ccccc3s2)[C@H]2C(=O)O[C@H](c3ccccc3)[C@H](c3ccccc3)N2[C@@H]1c1ccccc1OCCO
2. [N-]=[N+]=NCc1ccccc1C[C@]1(C(=O)N2CCCCC2)N=C(c2ccc(OCCCO)cc2)O[C@H]1c1ccccc1N=[N+]=[N-]
3. CC(C)=CCN[C@H](CO)c1ccccc1
4. O=C1N[C@@H](Cc2ccccc2)C(=O)N2[C@@H]1C[C@@H](C(=O)O)[C@H]2c1cccc(OCCO)c1
5. COc1cc(Br)cc(C(O)C2C=CC3C(=O)N(C)C(=O)C3N2N2CCCCC2)c1OC (centres undefined)

Response:
[1.54, 1.57, -0.198, 1.56, -0.962]

The following molecules each have a reported value; give each one's composite z-score.
1. C=CCC(OC(C)=O)[C@@H]1[C@@H](N(Cc2ccc(-c3ccccc3)cc2)C(=O)c2ccc(-c3ccccc3)cc2)c2cc(OCCCO)ccc2N1C(=O)Cc1ccc2ccccc2c1 (some centres undefined)
2. CC(C)C(=C=CC[C@@H](O)c1ccc(OCCO)cc1)C[C@@H](O)c1ccccn1
3. CCOC(=O)C[C@H]1[C@H](OC(=O)c2ccccc2-c2ccccc2)[C@@H](NC(=O)CC(C)C)c2cc(OCCCO)ccc2N1C(=O)Cc1ccc(OC)cc1
4. COC(=O)[C@@]1(Cc2ccc(OC)cc2)[C@H]2c3cc(C(=O)N4CCCC4)n(CCN4CNCC4=O)c3C[C@H]2CN1C(=O)c1ccccc1

Response:
[0.758, 1.19, 0.395, -0.871]
